In this section we review reported Inhibition (%) values for a set of compounds.
# test-system: IV-cPLA(2) (Homo sapiens)
# Sequence (P47712 whole entry): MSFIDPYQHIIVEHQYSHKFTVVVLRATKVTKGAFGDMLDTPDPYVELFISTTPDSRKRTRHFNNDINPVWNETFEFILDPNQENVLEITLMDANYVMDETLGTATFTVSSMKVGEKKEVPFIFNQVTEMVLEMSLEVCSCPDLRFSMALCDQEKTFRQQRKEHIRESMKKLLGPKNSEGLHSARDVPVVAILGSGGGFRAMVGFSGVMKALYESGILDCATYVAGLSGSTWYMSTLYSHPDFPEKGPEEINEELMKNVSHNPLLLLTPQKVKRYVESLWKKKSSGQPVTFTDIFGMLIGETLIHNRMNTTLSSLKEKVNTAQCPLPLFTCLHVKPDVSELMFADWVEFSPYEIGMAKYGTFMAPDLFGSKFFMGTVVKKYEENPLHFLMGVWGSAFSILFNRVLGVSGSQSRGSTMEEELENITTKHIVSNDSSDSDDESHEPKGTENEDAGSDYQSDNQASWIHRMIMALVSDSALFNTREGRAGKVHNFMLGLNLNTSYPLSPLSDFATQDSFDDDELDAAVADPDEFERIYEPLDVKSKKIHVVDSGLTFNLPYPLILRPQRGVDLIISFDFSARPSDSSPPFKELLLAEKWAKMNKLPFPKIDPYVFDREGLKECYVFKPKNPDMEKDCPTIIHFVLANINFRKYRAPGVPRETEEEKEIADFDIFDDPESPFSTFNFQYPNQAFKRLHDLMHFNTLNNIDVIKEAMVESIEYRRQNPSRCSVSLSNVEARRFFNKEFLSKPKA
# assay-method-text: PLA(2) activity, hydrolysis of bis-BODIPY FL C11-PC in activated U937 cells
# Type: cell-based
# condition: 0.1 μM
// return the numeric value with its unit appended

{"compound": "CCOC(=O)C(C)NC(=O)N1C(=O)OC(c2ccc(C)cc2)C1C (centres unmarked) [Compound 2-54]", "Inhibition (%)": "95%"}
{"compound": "CCN(CC)S(=O)(=O)NC(=O)N1C(=O)OC(c2ccc(C)cc2)C1C (centres unmarked) [Compound 2-55]", "Inhibition (%)": "94%"}

## Input What measured Inhibition (%) goes with CC1C(c2ccc(Cc3ccccc3)cc2)OC(=O)N1C(=O)NC1CCCCO1 (centres unmarked) [Compound 2-117] ?
## Output 82%

## Input What measured Inhibition (%) goes with CC1C(c2ccc(-c3ccccc3)cc2)OC(=O)N1C(=S)NC1CCCCC1 (centres unmarked) [Compound 2-75] ?
## Output 83%

## Input What measured Inhibition (%) goes with Cc1ccc(C2OC(=O)N(C(=O)NC3CCCCO3)C2C)cc1 (centres unmarked) [Compound 2-170] ?
## Output 82%

* * *

In this section we review reported Inhibition (%) values for a set of compounds.
# test-system: IV-cPLA(2) (Homo sapiens)
# assay-method-text: PLA(2) activity, hydrolysis of bis-BODIPY FL C11-PC in activated U937 cells
# Format: cell-based
# condition: 0.1 μM
// return the numeric value with its unit appended

## Input What measured Inhibition (%) goes with Cc1ccc(C2OC(=O)N(C(=O)NC(=O)c3c(F)cccc3F)C2C)cc1 (stereo not shown) [Compound 2-79] ?
## Output 55%

* * *

In this section we review reported Ear Edema Inhibition (%) values for a set of compounds.
# Test system: TPA-induced ear edema
# Format: in vivo, ICR-strain male mouse
# condition: topical, 1 mg/40 μL/ear × 2; 6 hours after TPA
// return the numeric value with its unit appended

Some compounds with known Ear Edema Inhibition (%) results, for comparison:
{"compound": "CC1C(c2ccc(Oc3ccccc3)cc2)OC(=O)N1C(=O)NC1CCCO1 (stereo not shown) [Compound 2-128]", "test-system": "TPA-induced ear edema", "Ear Edema Inhibition (%)": "49%"}
{"compound": "CC1C(c2ccc3c(c2)CCC3)OC(=O)N1C(=O)NC1CCCCO1 (stereo not shown) [Compound 2-127]", "test-system": "TPA-induced ear edema", "Ear Edema Inhibition (%)": "81%"}
{"compound": "C[C@@H]1[C@@H](c2ccc(Cl)cc2)SC(=O)N1C(=O)NC1CCCCO1 (single isomer, unassigned) [Compound 2-246]", "test-system": "TPA-induced ear edema", "Ear Edema Inhibition (%)": "74%"}

## Input Can you look up Ear Edema Inhibition (%) on TPA-induced ear edema for CCN(CC)S(=O)(=O)NC(=O)N1C(=O)OC(c2ccc(C)cc2)C1C (stereo not shown) [Compound 2-55] ?
## Output 54%

* * *

# Tested on: TPA-induced ear edema
# Format: in vivo, ICR-strain male mouse
# condition: topical, 1 mg/40 μL/ear × 2; 6 hours after TPA
measurement-label: Ear Edema Inhibition (%)
Give the value, in units of %, as a plain number.

Some compounds with known Ear Edema Inhibition (%) results, for comparison:
{"compound": "Cc1ccc(C2OC(=NC(=O)c3c(C)cccc3Cl)NC2C)cc1 (centres unmarked) [Compound 1-73]", "measurement-unit": "%", "Ear Edema Inhibition (%)": 86}
{"compound": "Cc1ccc(C2SC(=NC(=S)NC3CCCCC3)NC2C)cc1 (centres unmarked) [Compound 1-112]", "measurement-unit": "%", "Ear Edema Inhibition (%)": 69}
{"compound": "Cc1ccc(C2OC(=O)N(C(=O)NS(=O)(=O)c3ccccc3C)C2C)cc1 (centres unmarked) [Compound 2-60]", "measurement-unit": "%", "Ear Edema Inhibition (%)": 53}

## Input What measured Ear Edema Inhibition (%) goes with CC1C(c2ccc3c(c2)CCCC3)OC(=O)N1C(=O)NC1CCCCO1 (centres unmarked) [Compound 2-125] ?
## Output 62

## Input What measured Ear Edema Inhibition (%) goes with CC1C(c2ccccn2)OC(=O)N1C(=O)Nc1ccc(Cl)cc1 (centres unmarked) [Compound 2-146] ?
## Output 80

Entry source: patent US6762200B2
